# EXPERIMENTAL_TARGET: T1, mouse IL-12Rβ2 expressed on cells (mouse, UniProt P97378 24-874)
# T1 construct: HEK293T cells, stably transduced (cDNA NM_008354); also called mIL-12RB2
# T1 sequence: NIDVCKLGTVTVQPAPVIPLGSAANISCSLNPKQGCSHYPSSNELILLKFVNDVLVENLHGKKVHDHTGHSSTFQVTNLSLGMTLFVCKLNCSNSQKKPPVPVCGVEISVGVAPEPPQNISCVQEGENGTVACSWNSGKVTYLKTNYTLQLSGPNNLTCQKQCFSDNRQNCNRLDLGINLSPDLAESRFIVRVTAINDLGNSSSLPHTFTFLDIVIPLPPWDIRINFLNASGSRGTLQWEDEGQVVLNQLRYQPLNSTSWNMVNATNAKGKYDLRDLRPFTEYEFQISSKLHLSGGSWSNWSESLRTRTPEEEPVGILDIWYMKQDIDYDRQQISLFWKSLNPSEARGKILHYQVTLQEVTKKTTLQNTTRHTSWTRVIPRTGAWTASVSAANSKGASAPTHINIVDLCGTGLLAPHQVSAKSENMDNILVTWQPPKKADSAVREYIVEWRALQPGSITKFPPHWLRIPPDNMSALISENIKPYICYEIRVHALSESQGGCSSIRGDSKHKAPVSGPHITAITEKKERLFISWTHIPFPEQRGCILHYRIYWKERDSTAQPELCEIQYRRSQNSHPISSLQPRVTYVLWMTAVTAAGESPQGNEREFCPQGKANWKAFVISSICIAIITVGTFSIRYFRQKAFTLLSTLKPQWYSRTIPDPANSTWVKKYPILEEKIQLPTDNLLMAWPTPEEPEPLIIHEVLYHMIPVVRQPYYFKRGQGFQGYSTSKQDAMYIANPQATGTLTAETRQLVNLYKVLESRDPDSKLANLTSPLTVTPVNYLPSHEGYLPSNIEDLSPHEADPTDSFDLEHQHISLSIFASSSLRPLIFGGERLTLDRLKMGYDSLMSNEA
# ASSAY_DETAILS: flow cytometry, P.E. VHH on HEK293T cells stably expressing mIL-12RB2
MEASURED_METRIC: dMFI
Output: the number by itself.

**Q:** Entry under review: anti-IL-12Rβ2 VHH clone 3CAM57 (VHH, not shown: small tags and cut ends, tested as periplasmic extract; also called 20512; 3CAMS7) VHH: QVQLQESGGGLVQAGGSLRLSCTPSGRTFSTLAMGWFRQAPGKEREVVATISWSGGRTYYASSVKSRFTISRDNAKNTAYLQMNSLRPDDTAVYYCAARGTDYGAYDYWGQGTQVTVSS . Reported dMFI?
**A:** 351

**Q:** Entry under review: anti-IL-12Rβ2 VHH clone 2CRM83 (VHH, not shown: small tags and cut ends, tested as periplasmic extract; also called 20451) VHH: QVQLQESGGGLVQPGGSLRLSCAASGFTFSAYAMSWVRQAPGKGLEWVSSISSTGTNPNYADSVKGRFTISRDNAKNTLYLQMNSLKPEDTAVYYCAEAYRNYSPPGQGTQVTVSS . Reported dMFI?
**A:** 122

**Q:** Entry under review: anti-IL-12Rβ2 VHH clone 2CAMS52 (VHH, not shown: small tags and cut ends, tested as periplasmic extract; also called 20535; 2CAMSSZ) VHH: QVQLQESGGGLVQPGASLRLSCATSGPTLSTYAMGWFRQAPGKEREVVATISWSGGRVTYVDSVKGRFTISRDNAKNTAYLQMNRLRPDDTAVYTCAARESDYGAYDYWGQGTQVTVSS . Reported dMFI?
**A:** 342

**Q:** Entry under review: anti-IL-12Rβ2 VHH clone 3CRHM20 (VHH, not shown: small tags and cut ends, tested as periplasmic extract; also called 21055) VHH: QVQLQESGGGLVQAGGSLRLSCAASGRTFSKSTMGWFRQTPGKEREFVAAITWTDTEVYANSVKDRFTISRDNAKNTFYLQMHSLKLEDTAVYYCAGDRYGSSRDSVFSSPTNYPYWGQGTQVTVSS . Reported dMFI?
**A:** 7.4

**Q:** Entry under review: anti-IL-12Rβ2 VHH clone 2CAM62 (VHH, not shown: small tags and cut ends, tested as periplasmic extract; also called 20493) VHH: QVQLQESGGGLVQAEGSLRLSCVASGRTFSSYGMGWFRQAPGKEREFVTGISSAGSWIGDITSYADSVKGRFTISRDNAKNILYLQMNSLKPEDTAVYYCAAAYHGSRYYVGSTANEYTTWGQGTQVTVSS . Reported dMFI?
**A:** 70

**Q:** Entry under review: anti-IL-12Rβ2 VHH clone 3CRHM85 (VHH, not shown: small tags and cut ends, tested as periplasmic extract; also called 21061) VHH: QVQLQESGGGLVQPGGSLRLSCAASRRTFSKHAMAWFRQAPGKEREFVAVVRWSGIITYYADSVKGRFTISRDDAKNTVYLQMDSLKPEDTAVYYCAAGDYRGNGYYVPGMYDYWGQGTQVTVSS . Reported dMFI?
**A:** 3.5

**Q:** Entry under review: anti-IL-12Rβ2 VHH clone 2CAM39 (VHH, not shown: small tags and cut ends, tested as periplasmic extract; also called 20482) VHH: QVQLQESGGGLVQAGGSLRLSCAASGRTFSTYAMGWFRQAPGKEREFVAAISWSGGSTYYADSVKGRFTISRDNAKNTGYLQMNSLKPEDTAVYVCAADAEDPILYGSSWNNRRKEYDYWGQGTQVTVSS . Reported dMFI?
**A:** 255

**Q:** Entry under review: anti-IL-12Rβ2 VHH clone 2CRM28 (VHH, not shown: small tags and cut ends, tested as periplasmic extract) VHH: QVQLQESGGGLVQPGGSLRLSCAASGRAWNEYNMGWFRQAPGKEREFVALIWWSSGNTYYADSVKGRFTISRDKVKNTVYLQMNSLKPEDTAVYYCAAGPTFNKYEYWGQGTQVTVSS . Reported dMFI?
**A:** 100

**Q:** Entry under review: anti-IL-12Rβ2 VHH clone 3CRM45 (VHH, not shown: small tags and cut ends, tested as periplasmic extract; also called 20458) VHH: QVQLQESGGGLVQAGGSLRLSCTASGSIFAIDDMYWYRQAPGKEREFVAYITATNSANYLDSVNGRFTISRDNAKNSVYLQMNSLKPEDTAVYYCNAKQIVGFQIDEYWGQGTQVTVSS . Reported dMFI?
**A:** 110

**Q:** Entry under review: anti-IL-12Rβ2 VHH clone 3CAM10 (VHH, not shown: small tags and cut ends, tested as periplasmic extract; also called 20507) VHH: QVQLQESGGGLVQAGGSLRLSCAASGRTFSDYPMAWFRQAPGKEREFVAGISNGGTAYYADSVKGRFTISRDNTRNTVYLQMNRLKVEDTAVYYCAAVHLLSNLRGADPHEADYWGQGTQVTVSS . Reported dMFI?
**A:** 212

**Q:** Entry under review: anti-IL-12Rβ2 VHH clone 3CRH83 (VHH, not shown: small tags and cut ends, tested as periplasmic extract) VHH: QVQLQESGGGLVQAGGSLKLSCAASGNTFSINAMAWYRQAPGQELELVAAISDVGNTIYADSMKGRFTISRGNADNTVYLQMNSLKPEDTATYYCNAGTFYTSPGDSYYRGYDFWGQGTQVTVSS . Reported dMFI?
**A:** 21

**Q:** Entry under review: anti-IL-12Rβ2 VHH clone 2CRMS29 (VHH, not shown: small tags and cut ends, tested as periplasmic extract; also called 20521) VHH: QVQLQESGGGLVQAGGPLRLSCAASGRTFSGSAMGWFRQAPGKEREFVAAITWVGGFTYYADSVKGRFTISRDNAKNTVYLQMNNLSPEDTAVYSCAAQAYHKSGYYYPPLYDYWGQGTQVTVSS . Reported dMFI?
**A:** 58

**Q:** Entry under review: anti-IL-12Rβ2 VHH clone 3CRHM73 (VHH, not shown: small tags and cut ends, tested as periplasmic extract; also called 21060) VHH: QVQLQESGGGLVQAGGSLSLSCAASGSAFRLNFMGWYRQAPGKQRELVAAINSGGTEIYHDSVKGRFTISRDNADSTVWLQMNSLKPDDTAVYYCAADRGISWSKLAGGMDYWGKGTQVTVSS . Reported dMFI?
**A:** 150

**Q:** Entry under review: anti-IL-12Rβ2 VHH clone 3CAHM40 (VHH, not shown: small tags and cut ends, tested as periplasmic extract) VHH: QVQLQESGGGSVQAGGSLRLSCAVSGRTVSDYAMGWFRQAPGKEREFVAAMSSSETTVYPNSMKGRITISRDNAKNAVYLQLNALKPEDTAVYYCSMGPIATFQGLARQNEYHYWGQGTQVTVSS . Reported dMFI?
**A:** -1.8

**Q:** Entry under review: anti-IL-12Rβ2 VHH clone 3CAM36 (VHH, not shown: small tags and cut ends, tested as periplasmic extract; also called 20511) VHH: QVQLQESGGGLVQAGESLTLSCTASGRTFSSYGMGWFRQAPGKERDFVAAISRDARYTDYADSVKGRFTISKDNAKNTAYLQMNSLNPEDTAVYFCAAAYTYSGSHYVTARSGDYNYWGQGTQVTVSS . Reported dMFI?
**A:** 151
